- System: Rat1
- assay protocol: 90% reduction in v-Ha-ras (Ras2B) transformed RAT1 cell colony size and number in soft agar assay
- Format: functional
- measurement setup: Rattus norvegicus
measurement type: IC90 (µM)

{"structure notation": "N[C@@H](CS)CNc1ccc(Oc2ccccc2)cc1", "measurement type": "IC90", "unit descriptor": "µM", "observed measurement": 10}
{"structure notation": "COC(=O)c1cccc(Oc2ccc(NC[C@@H](N)CS)cc2)c1", "measurement type": "IC90", "unit descriptor": "µM", "observed measurement": 10}
{"structure notation": "Cc1cccc(Oc2ccc(NC[C@@H](N)CS)cc2)c1", "measurement type": "IC90", "unit descriptor": "µM", "observed measurement": 10}
